target: mouse cGAS (Mus musculus); construct: recombinant full-length mouse cGAS in reaction buffer; His6-SUMO (N, cleaved yes); made in house; host or cells: E. coli BL21(DE3) RIL; experiment: RapidFire mass spectrometry (RF-MS) cGAS enzymatic assay, cGAMP product formation; assay type: biochemical; settings: Supplementary Table 2; compound 12.5 µM; read-out: % inhibition at 12.5 µM
Give measured inhibition at 12.5 µM for each item. Keep answers brief.
Number in %, nothing else.

Which inhibition at 12.5 µM value belongs to N#Cc1ccc(/C=C2\CS(=O)(=O)c3c(F)cccc3C2=O)cc1 ?
63

Which inhibition at 12.5 µM value belongs to S=c1[nH]nc(-c2sc3ccccc3c2Cl)o1 ?
92

Which inhibition at 12.5 µM value belongs to Cc1nc2nc(C)c(Br)c(O)n2n1 ?
69

Which inhibition at 12.5 µM value belongs to C[n+]1cc2c3c(ccc2c2ccc4cc5c(cc4c21)OCO5)OCO3 ?
85

Which inhibition at 12.5 µM value belongs to N#Cc1cc(I)c(O)c([N+](=O)[O-])c1 ?
95

Which inhibition at 12.5 µM value belongs to O=c1cc(CCn2cccn2)nc(-c2ccc(CN3CCC[C@@H]3CO)cc2)[nH]1 ?
89

Which inhibition at 12.5 µM value belongs to N=C(N)NN=C1C=CC(=NNC(N)=S)C=C1 ?
79

* * *

molecular target: mouse cGAS (Mus musculus, UniProt Q8C6L5); construct: recombinant full-length mouse cGAS in reaction buffer; His6-SUMO (N, cleaved yes); made in house; host or cells: E. coli BL21(DE3) RIL; assay: RapidFire mass spectrometry (RF-MS) cGAS enzymatic assay, cGAMP product formation; format: biochemical; settings: Supplementary Table 3; analogs more potent than RU166365; read-out: IC50
Sequence (Q8C6L5 whole entry): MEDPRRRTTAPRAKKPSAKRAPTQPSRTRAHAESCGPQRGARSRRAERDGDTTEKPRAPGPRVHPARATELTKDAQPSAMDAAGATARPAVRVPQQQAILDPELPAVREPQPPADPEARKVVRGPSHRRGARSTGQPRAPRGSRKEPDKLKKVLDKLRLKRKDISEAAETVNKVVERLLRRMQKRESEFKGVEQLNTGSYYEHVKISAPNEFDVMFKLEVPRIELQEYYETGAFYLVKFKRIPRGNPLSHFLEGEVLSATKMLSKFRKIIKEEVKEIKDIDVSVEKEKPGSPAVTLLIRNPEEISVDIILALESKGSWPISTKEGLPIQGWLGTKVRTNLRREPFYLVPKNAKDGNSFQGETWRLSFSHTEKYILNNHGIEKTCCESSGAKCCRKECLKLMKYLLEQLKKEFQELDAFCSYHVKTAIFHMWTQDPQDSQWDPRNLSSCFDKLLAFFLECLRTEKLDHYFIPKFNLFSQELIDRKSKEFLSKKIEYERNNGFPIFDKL
pIC50: −log10 of the molar value.
# binarize pIC50: threshold 6 inclusive, high side 1, low side -1

Can Cc1nn(-c2nc3ccccc3[nH]2)c(O)c1C1OC(=O)c2ccccc21 (stereo not drawn) be said to have pIC50 at or above 6?
-1

Can Cc1nn(-c2nc3cccc(Cl)c3[nH]2)c(O)c1C1OC(=O)c2ccccc21 (stereo not drawn) be said to have pIC50 at or above 6?
1

Can Cc1nn(-c2nc3cccc(Br)c3[nH]2)c(O)c1C1OC(=O)c2ccccc21 (stereo not drawn) be said to have pIC50 at or above 6?
1

Can Cc1nn(-c2nc3cc(Cl)cc(Cl)c3[nH]2)c(O)c1C1OC(=O)c2ccccc21 (stereo not drawn) be said to have pIC50 at or above 6?
1

* * *

Give measured IC50 for each item. Keep answers brief.
target: mouse cGAS (Mus musculus); construct: recombinant full-length mouse cGAS in reaction buffer; His6-SUMO (N, cleaved yes); made in house; host or cells: E. coli BL21(DE3) RIL; assay: RapidFire mass spectrometry (RF-MS) cGAS enzymatic assay, cGAMP product formation; format: biochemical; conditions: Supplementary Table 2; batch of compounds stored in the screening library; read-out: IC50
Number in µM, nothing else.

Which IC50 value belongs to O=C1CN2C(=C1c1ccccc1)NC(=O)c1sc3ccccc3c12 ?
9.69

Which IC50 value belongs to Cc1nn(-c2nc3ccccc3[nH]2)c(O)c1C1OC(=O)c2ccccc21 (stereo not shown) ?
0.52

Which IC50 value belongs to CC[C@@]1(O)C[C@H](O[C@H]2C[C@H](N(C)C)[C@H](O)[C@H](C)O2)c2c(cc3c(c2O)C(=O)c2c(O)cccc2C3=O)[C@H]1C(=O)OC ?
1.42

Which IC50 value belongs to NC(=O)N1C(=O)/C(=C(\O)c2cccs2)c2cc(Cl)ccc21 ?
6.09

Which IC50 value belongs to CC(=O)[C@]1(O)Cc2c(O)c3c(c(O)c2[C@@H](O[C@H]2C[C@H](N)[C@H](O)[C@H](C)O2)C1)C(=O)c1ccccc1C3=O ?
1.45

Which IC50 value belongs to CCN(CC)CCNc1ccc(CO)c2sc3ccccc3c(=O)c12 ?
6.8

Which IC50 value belongs to S=c1[nH]nc(-c2sc3ccccc3c2Cl)o1 ?
6.12

Which IC50 value belongs to CCC1=NN2C(=N)/C(=C/c3ccc(O)cc3)C(=O)N=C2S1 ?
4.25

Which IC50 value belongs to N#CCC(=O)Nc1sc2c(c1C(N)=O)CCCC2 ?
9.11

Which IC50 value belongs to O=C1c2c(O)ccc(O)c2C(=O)c2c(NCCNCCO)ccc(NCCNCCO)c21 ?
0.72

Which IC50 value belongs to COC(=O)C1=C(C)NC(C)=C(C(=O)OC)C1c1ccccc1[N+](=O)[O-] ?
0.8

Which IC50 value belongs to Nc1c2ccccc2nc2ccccc12 ?
2.83

Which IC50 value belongs to CC[n+]1c(-c2ccccc2)c2cc(N)ccc2c2ccc(N)cc21 ?
0.43

Which IC50 value belongs to CC(C)OC(=O)C(C#N)=Cc1ccc([N+](=O)[O-])o1 ?
8.14

Which IC50 value belongs to C[n+]1cc2c3c(ccc2c2ccc4cc5c(cc4c21)OCO5)OCO3 ?
3.37

Which IC50 value belongs to O=C(Nc1nncs1)c1cn(-c2ccccc2Br)nn1 ?
9.09

The measured values listed here are drawn from paper PMC5622107.
